tested on: L1210 leukemia ip in BDF1 mice, survival T/C; assay: NCI In Vivo Anticancer Drug Screen. Data for tumor model L1210 Leukemia (intraperitoneal) in B6D2F1 (BDF1) mice; settings: endpoint: mean survival time; dose: 200.0 mg/kg/injection; schedule: Q04DX003 (ip); vehicle: Klucel (hydroxypropylcellulose) (HPC); higher = longer survival
Inconclusive results and toxic doses are left out.
Each record here notes measured T/C.

CCCCCCCCC(O)CCCCC (centres undefined)
103 % of control
O=C(O)CNc1cccc([N+](=O)[O-])c1
93 % of control
CC(C)c1cccc(C(C)C)c1OC(=O)Nc1ccccc1
100 % of control
OCC1(c2ccccc2)CCN(Cc2ccccc2)CC1
101 % of control
O=[N+]([O-])c1cc([N+](=O)[O-])c(Nc2cccc3ccccc23)c([N+](=O)[O-])c1
102 % of control
OCCN=C1c2cc(Cl)ccc2-c2c(Cl)cc(Cl)cc21
97 % of control

## Input Kindly indicate its recorded T/C. Item: O=C1CCC(c2ccccc2)=NN1
## Output 95 % of control

## Input Dear colleague, please send me the reported T/C for CCCCCCCCCCCCCCCC(=O)Nc1cccc2cnccc12 when you can.
## Output 97 % of control

## Input Return the recorded T/C value; entry: O=C(O)CCCCC(=O)c1cc(O)ccc1O
## Output 104 % of control

## Input For the compound O=S(=O)(CCCc1ccccc1)c1ccccc1 , report T/C.
## Output 100 % of control

## Input Supply measured T/C of CC(=O)OC(C(=O)c1ccccc1)c1ccccc1 (centres undefined) in your reply.
## Output 104 % of control

## Input Note T/C for the compound shown: CCC(=O)Nc1cc(Cl)ccc1C
## Output 102 % of control

## Input Tell us which T/C value is on record for NC(=O)Oc1ccc(Cc2ccccc2)cc1
## Output 97 % of control

* * *

This listing pairs molecules with measured T/C.
system: L1210 leukemia ip in BDF1 mice, survival T/C; test: NCI In Vivo Anticancer Drug Screen. Data for tumor model L1210 Leukemia (intraperitoneal) in B6D2F1 (BDF1) mice; details: endpoint: mean survival time; dose: 100.0 mg/kg/injection; schedule: Q04DX002 (ip); vehicle: saline; higher = longer survival
Inconclusive results and toxic doses are left out.

## Input Give the observed T/C of CC(=O)CCC(=O)CCC(=O)O for L1210 leukemia ip in BDF1 mice, survival T/C.
## Output 92 % of control

## Input Look up and report T/C, with L1210 leukemia ip in BDF1 mice, survival T/C as system, for CNC1CC2CCC1(C)C2(C)C (stereo not given)
## Output 96 % of control

* * *

Item-by-item account of T/C
Test system: L1210 leukemia ip in BDF1 mice, survival T/C
Assay: NCI In Vivo Anticancer Drug Screen. Data for tumor model L1210 Leukemia (intraperitoneal) in B6D2F1 (BDF1) mice
Conditions: endpoint: mean survival time; dose: 200.0 mg/kg/injection; schedule: Q04DX002 (ip); vehicle: Klucel (hydroxypropylcellulose) (HPC); higher = longer survival
Procedure: The antitumor activity of compounds was measured in mice bearing transplantable tumors. Survival or tumor size were measured and the results are expressed as the measurement made in the treated group (T) divided by the measurement made in the vehicle treated control group (C). The tumor model used in this assay is L1210 Leukemia (intraperitoneal) in B6D2F1 (BDF1) mice
Inconclusive results and toxic doses are left out.

Below, each entry is followed by its recorded T/C result.
Cc1ccc(Cl)cc1NC(=O)CCc1ccccc1
94 % of control
CON1C(=O)c2ccccc2S1=O (stereo not drawn)
92 % of control
COc1ccc(NC(=O)NC2CCCCC2)c(Cl)c1
102 % of control
CCCS(=O)(=O)N1CCCC(C)C1 (stereo not drawn)
97 % of control
CN(CCNC(=O)NCCCCCCNC(=O)NCCN(C)c1ccccc1)c1ccccc1
97 % of control
COc1cc(NC(=O)Nc2cc([N+](=O)[O-])ccc2C)c(OC)cc1Cl
97 % of control

## Input For L1210 leukemia ip in BDF1 mice, survival T/C, give T/C of the listed compound: CN(C)Cc1ccccc1COC(=O)c1ccc(Br)cc1
## Output 94 % of control

## Input Lab note: L1210 leukemia ip in BDF1 mice, survival T/C assay, enter T/C for COC1OC2COC(c3ccccc3)OC2C(NC(C)=O)C1O (stereo not drawn) here
## Output 111 % of control

## Input Fill in: T/C on L1210 leukemia ip in BDF1 mice, survival T/C, entry COc1ccc(-n2cccc2)cc1
## Output 90 % of control

Numbers sourced from PubChem BioAssay AID248.
